biological target: α-glucosidase (Saccharomyces cerevisiae, UniProt P53341); test: Fluorescence quenching, binding and thermodynamics with α-glucosidase; settings: T 310 K
Sequence (P53341 whole entry): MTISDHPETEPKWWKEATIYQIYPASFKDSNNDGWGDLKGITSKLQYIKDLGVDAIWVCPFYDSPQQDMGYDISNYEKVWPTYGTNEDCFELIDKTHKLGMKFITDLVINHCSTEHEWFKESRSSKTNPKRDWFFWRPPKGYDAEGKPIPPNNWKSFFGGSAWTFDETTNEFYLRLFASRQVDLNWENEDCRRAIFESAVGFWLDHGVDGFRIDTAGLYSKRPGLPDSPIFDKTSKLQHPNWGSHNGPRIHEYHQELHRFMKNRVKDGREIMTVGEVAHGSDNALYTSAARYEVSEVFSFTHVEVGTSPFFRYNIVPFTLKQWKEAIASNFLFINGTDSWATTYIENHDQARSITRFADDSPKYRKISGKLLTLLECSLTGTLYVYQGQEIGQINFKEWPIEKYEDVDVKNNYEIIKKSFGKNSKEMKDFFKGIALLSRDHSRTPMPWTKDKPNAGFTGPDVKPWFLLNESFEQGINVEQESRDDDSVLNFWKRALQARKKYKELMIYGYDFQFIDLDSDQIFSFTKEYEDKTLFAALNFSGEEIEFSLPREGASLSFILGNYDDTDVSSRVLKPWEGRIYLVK
Metric name: Ksv

Solved entries (count: 3):
O=C(O)c1ccc(-c2c3nc(c(-c4ccc(C(=O)O)cc4)c4ccc([nH]4)c(-c4ccc(C(=O)O)cc4)c4nc(c(-c5ccc(C(=O)O)cc5)c5ccc2[nH]5)C=C4)C=C3)cc1.[Ni+2]	12.31 ± 0.08 ×10^4 L/mol
Oc1ccc(-c2c3nc(c(-c4ccc(O)cc4)c4ccc([nH]4)c(-c4ccc(O)cc4)c4nc(c(-c5ccc(O)cc5)c5ccc2[nH]5)C=C4)C=C3)cc1	6.69 ± 0.04 ×10^4 L/mol
O=C(O)c1ccc(-c2c3nc(c(-c4ccc(C(=O)O)cc4)c4ccc([nH]4)c(-c4ccc(C(=O)O)cc4)c4nc(c(-c5ccc(C(=O)O)cc5)c5ccc2[nH]5)C=C4)C=C3)cc1	4.22 ± 0.09 ×10^4 L/mol

Ksv for O=C(O)c1ccc(-c2c3nc(c(-c4ccc(C(=O)O)cc4)c4ccc([nH]4)c(-c4ccc(C(=O)O)cc4)c4nc(c(-c5ccc(C(=O)O)cc5)c5ccc2[nH]5)C=C4)C=C3)cc1.[Cu+2] is 5.05 ± 0.02 ×10^4 L/mol

Ksv for Nc1ccc(-c2c3nc(c(-c4ccc(N)cc4)c4ccc([nH]4)c(-c4ccc(N)cc4)c4nc(c(-c5ccc(N)cc5)c5ccc2[nH]5)C=C4)C=C3)cc1 is 5.66 ± 0.02 ×10^4 L/mol

Where do the numbers come from? From paper PMC12467033.
